Target: X2IRBP (second module of Xenopus IRBP), wild-type sequence
Format: binding
Conditions: read-out: Kd, Enhancement; 11-cis retinol; X2IRBP of wild-type sequence; Figure 6
Reported property: Kd (nM)

{"columns": ["Compound", "Reported property", "Unit symbol", "Test result"],
 "data": [
  ["CC1=C(/C=C/C(C)=C/C=C\\C(C)=C\\CO)C(C)(C)CCC1 [11-cis retinol]", "Kd", "nM", 77]
]}

----------
Biological target: W587F X2IRBP
Test: Energy transfer titration, W587F mutant
Type: binding, Xenopus
Details: read-out: Kd, Energy Transfer, all-trans retinol, Figure 4

{"columns": ["Molecule", "Kd (nM)"],
 "data": [
  ["CC1=C(/C=C/C(C)=C/C=C/C(C)=C/CO)C(C)(C)CCC1 [all-trans retinol]", 100]
]}

----------
Target: X2IRBP (second module of Xenopus IRBP), wild-type sequence
Test: Energy transfer titration, X2IRBP of wild-type sequence
Assay type: binding
Conditions: read-out: Kd, Energy Transfer; all-trans retinol; excitation 280 nm, emission 480 nm; Figure 4
pKd: −log10 of the molar value.

{"columns": ["Molecule", "Measurement target", "pKd"],
 "data": [
  ["CC1=C(/C=C/C(C)=C/C=C/C(C)=C/CO)C(C)(C)CCC1 [all-trans retinol]", "X2IRBP (second module of Xenopus IRBP), wild-type sequence", 7.48]
]}

----------
Target: W450F X2IRBP
Test: Titration monitoring enhancement of retinol fluorescence, W450F mutant
Type: binding, Xenopus
Conditions: read-out: Kd, Enhancement, all-trans retinol, titrations of Figure 4

{"columns": ["Compound", "Measurement target", "Kd / nM"],
 "data": [
  ["CC1=C(/C=C/C(C)=C/C=C/C(C)=C/CO)C(C)(C)CCC1 [all-trans retinol]", "W450F X2IRBP", 450]
]}

----------
Biological target: W450F X2IRBP
Assay: Energy transfer titration, W450F mutant
Assay type: binding, Xenopus
Details: read-out: Kd, Energy Transfer, all-trans retinol, Figure 4
Reported property: Kd (nM)

{"columns": ["Molecule", "Test result"],
 "data": [
  ["CC1=C(/C=C/C(C)=C/C=C/C(C)=C/CO)C(C)(C)CCC1 [all-trans retinol]", 290]
]}

----------
Biological target: W587F X2IRBP
Assay: Titration monitoring enhancement of retinol fluorescence, W587F mutant
Type: binding, Xenopus
Conditions: read-out: Kd, Enhancement, 11-cis retinol, excitation 324 nm, emission 475 nm, Figure 7
Reported property: Kd (nM)

{"columns": ["Compound", "Measurement target", "Reported property", "Test result"],
 "data": [
  ["CC1=C(/C=C/C(C)=C/C=C\\C(C)=C\\CO)C(C)(C)CCC1 [11-cis retinol]", "W587F X2IRBP", "Kd", 132]
]}
